target: Recombinant human mPGES-1 (Homo sapiens, UniProt O14684); construct: made in house; host or cells: CHO cells (crude microsomal fractions); assay: In-vitro screening of mPGES-1 inhibitors (inhibition of PGE2 formation from PGH2, HTRF detection); format: biochemical; details: 1 μM test compound; mPGES-1 enzyme, crude microsomal fractions; read-out: Percentage inhibition at 1 μM
Sequence (O14684 whole entry): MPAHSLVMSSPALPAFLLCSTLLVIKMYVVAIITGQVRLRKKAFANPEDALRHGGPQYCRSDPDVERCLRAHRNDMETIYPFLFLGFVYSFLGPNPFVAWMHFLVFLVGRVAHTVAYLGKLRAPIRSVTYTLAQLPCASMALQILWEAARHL
Measured Property: inhibition at 1 µM (%)
The answer is to be given in %; state only the numeric part.

According to the records, this compound COc1cc(-n2nc(-c3c(F)cccc3Cl)[nH]c2=O)ccc1C#Cc1cc(Cl)ccc1Cl displays inhibition at 1 µM of 93.9

According to the records, this compound COc1cc(-n2nc(-c3cc(CNC(=O)C4CC4)ccc3Cl)[nH]c2=O)ccc1C(=O)Nc1cccc(C(F)F)c1 displays inhibition at 1 µM of 97.4

According to the records, this compound COc1cc(-n2nc(-c3cc(CNC(=O)C4CC4)ccc3Cl)[nH]c2=O)ccc1C(=O)Nc1ccc(F)c(C(F)F)c1 displays inhibition at 1 µM of 92.4

According to the records, this compound Cc1ccc(-n2nc(-c3cc(CNC(=O)C(C)(C)C)c(F)cc3Cl)[nH]c2=O)cc1Cl displays inhibition at 1 µM of 92.3

According to the records, this compound COc1cc(-c2nn(-c3c(Cl)cccc3Cl)c(=O)[nH]2)ccc1C(=O)Nc1cccc(C(F)(F)F)c1 displays inhibition at 1 µM of 95.6

According to the records, this compound CC(C)(C)C(=O)NCc1ccc(Cl)c(-c2nn(-c3ccc(F)c(Cl)c3)c(=O)[nH]2)c1 displays inhibition at 1 µM of 93.9

According to the records, this compound O=C(NCc1ccc(Cl)c(-n2nc(-c3ccc(C#Cc4cccc(C(F)(F)F)c4)cc3F)[nH]c2=O)c1)C1CC1 displays inhibition at 1 µM of 97

According to the records, this compound CC(C)(C)C(=O)NCc1ccc(Cl)c(-c2nn(-c3ccc(Cl)c(Cl)c3)c(=O)[nH]2)c1F displays inhibition at 1 µM of 97.5

According to the records, this compound O=c1[nH]c(-c2c(F)cccc2Cl)nn1-c1ccc(C#Cc2cccc(Cl)c2F)cc1 displays inhibition at 1 µM of 84.8

According to the records, this compound COc1cc(-n2nc(-c3c(C)cccc3Cl)[nH]c2=O)ccc1C(=O)Nc1ccc(F)c(C(F)F)c1 displays inhibition at 1 µM of 82.7

According to the records, this compound CC(C)(C)C(=O)NCc1ccc(Cl)c(-n2nc(-c3ccc(C#CC4CC4)c(F)c3)[nH]c2=O)c1 displays inhibition at 1 µM of 99.7

According to the records, this compound Cc1cc(-n2nc(-c3cc(CNC(=O)C(C)(C)C)ccc3Cl)[nH]c2=O)ccc1Cl displays inhibition at 1 µM of 95.2

According to the records, this compound COc1cc(-n2nc(-c3cc(CNC(=O)C4CC4)ccc3Cl)[nH]c2=O)ccc1NC(=O)C1CC1 displays inhibition at 1 µM of 87.8

According to the records, this compound COc1cc(-n2nc(-c3c(F)cccc3Cl)[nH]c2=O)ccc1C(=O)Nc1cc(C(F)(F)F)ccc1F displays inhibition at 1 µM of 97.3

According to the records, this compound O=C(Nc1ccc(C(F)(F)F)cc1)c1ccc(-n2nc(-c3c(F)cccc3Cl)[nH]c2=O)cc1 displays inhibition at 1 µM of 79.2

According to the records, this compound CC1(C)CCC(n2nc(-c3cc(CNC(=O)C(C)(C)C)c(F)cc3Cl)[nH]c2=O)CC1 displays inhibition at 1 µM of 79.9

According to the records, this compound O=C(Nc1ccc(F)c(C(F)(F)F)c1)c1ccc(-n2nc(-c3c(F)cccc3Cl)[nH]c2=O)cc1 displays inhibition at 1 µM of 88.8

According to the records, this compound COc1cc(-n2nc(-c3c(Cl)cccc3Cl)[nH]c2=O)ccc1C(=O)Nc1cccc(C(F)(F)F)c1 displays inhibition at 1 µM of 96.5

According to the records, this compound CC(C)(C)C(=O)NCc1ccc(Cl)c(-c2nn(-c3ccc(C(F)(F)F)nc3)c(=O)[nH]2)c1F displays inhibition at 1 µM of 98.7
